Settings: [M-H]-; instrument: DT; single field, calibrated with ESI Low Concentration Tuning Mix (Agilent)
PROPERTY_LABEL: collision cross section (N2) (Å²)

COMPOUND	collision cross section (N2) (Å²)
NC(=O)NCCC[C@H](N)C(=O)O	135.4
O=c1ccn([C@@H]2O[C@H](COP(=O)(O)OP(=O)(O)O)[C@@H](O)[C@H]2O)c(=O)[nH]1 [URIDINE 5'-DIPHOSPHATE]	172.9

A = CCC[C@H](N)C(=O)O
B = Nc1ncnc2c1ncn2[C@@H]1O[C@H](COP(=O)(O)OP(=O)(O)O[C@H]2O[C@H](CO)[C@@H](O)[C@H](O)[C@H]2O)[C@@H](O)[C@H]1O
Returns: the label, A or B , whose recorded collision cross section (N2) is the lower number. In your reply, give the label of the chosen option.
A
(A: 142 Å², B: 217.5 Å²)

a = Nc1nc(=O)c2ncn([C@H]3C[C@H](O)[C@@H](COP(=O)(O)OP(=O)(O)OP(=O)(O)O)O3)c2[nH]1
b = NCCC[C@@H](N)C(=O)O
# min-compare on collision cross section (N2) between a and b Answer with the label corresponding to your selection.
b

###

Details: [M+Na]+; instrument: DT; single field, calibrated with Agilent tune mix (Agilent)
PROPERTY_LABEL: collision cross section (N2) (Å²)

COMPOUND	PROPERTY_LABEL	UNIT_ABBREVIATION	ASSAY_RESULT
C[C@H]1O[C@@H](n2cnc3c(N)ncnc32)[C@H](O)[C@@H]1O	collision cross section (N2)	Å²	166.8
O=c1nc[nH]c2c1ncn2[C@H]1C[C@H](O)[C@@H](COP(=O)(O)O)O1 [2'-Deoxyinosine 5'-monophosphate]	collision cross section (N2)	Å²	166.8
O=C(CO)[C@H](O)[C@H](O)COP(=O)(O)O [D-Ribulose 5-phosphate]	collision cross section (N2)	Å²	148.8
O=C(O)CCCCCCCCCCCCCCCO [16-Hydroxypalmitic acid]	collision cross section (N2)	Å²	178.2
CO[C@@H]1[C@H](O)[C@@H](CO)O[C@H]1n1cnc2c(N)ncnc21	collision cross section (N2)	Å²	168.7
O=C(COP(=O)(O)O)[C@@H](O)[C@H](O)[C@H](O)CO [Fructose-1-phosphate]	collision cross section (N2)	Å²	155.4
Nc1ccn([C@H]2C[C@H](O)[C@@H](CO)O2)c(=O)n1	collision cross section (N2)	Å²	154.5
N[C@@H](CCOP(=O)(O)O)C(=O)O	collision cross section (N2)	Å²	141.6
OC[C@H]1O[C@@H](O[C@H]2[C@H](O)[C@@H](O)[C@H](O)O[C@@H]2CO)[C@H](O)[C@@H](O)[C@@H]1O	collision cross section (N2)	Å²	178.1

###

Conditions: [M+NH4]+; instrument: TW; calibrated with phosphatidylcholines (ESI+) and phosphatidylethanolamines (ESI-)
PROPERTY_LABEL: collision cross section (N2) (Å²)

COMPOUND	PROPERTY_LABEL	ASSAY_RESULT
CCCCCCCCCCCCCCCC(=O)OCC(CO[C@@H]1O[C@@H](C(=O)O)[C@H](O)[C@H](O)[C@H]1O)OC(=O)CCCCCCCCCCCCCCC (some centres undefined)	collision cross section (N2)	286
CCCCCC/C=C\CCCCCCCCCC(=O)OC(COC(=O)CCCCCCCCCCCCCCC)CO[C@@H]1O[C@@H](C(=O)O)[C@H](O)[C@H](O)[C@H]1O (some centres undefined)	collision cross section (N2)	290.1
CCCCCCCCCCCCCC=CCC(=O)OC[C@H](CO[C@@H]1O[C@H](CO[C@H]2O[C@H](CO)[C@H](O)C(O)C2O)[C@H](O)C(O)C1O)OC(=O)CC=CCCCCCCCCCCCCC (some centres undefined) [DGDG(16:0/18:2)]	collision cross section (N2)	307.5
CCCCCCCC=CCC=CCC=CCC(=O)OC[C@H](CO[C@@H]1O[C@H](CO[C@H]2O[C@H](CO)[C@H](O)C(O)C2O)[C@H](O)C(O)C1O)OC(=O)CC=CCC=CCC=CCCCCCCC (some centres undefined)	collision cross section (N2)	296.3
